test system: MOLT-4 leukemia; test: NCI tumour cell line growth inhibition, 48 h
reported-metric: TGI

Cc1ccc(O)c(C(c2ccc(C(c3cc(C)ccc3O)c3cc(C)ccc3O)cc2)c2cc(C)ccc2O)c1 ... > 100 µM
Cc1nn(C(=O)c2ccccc2O)c2c1C(c1ccc3ccccc3c1O)SC(N)=N2 (stereo unspecified) ... > 10 µM
CCOC(=O)C12CCCC1(O)N(NC(N)=O)C(C)=C2C(=O)OC (stereo unspecified) ... > 100 µM
COC1=C(OC)C(O)(c2ccccc2)C1=O (stereo unspecified) ... > 100 µM
O=C(c1ccc(Cl)cc1)c1no[n+]([O-])c1C(=O)c1ccc(Cl)cc1 ... 22.1 µM
COc1ccc(/C(=N/O)C(c2ccc(OC)cc2)C2C(=O)Oc3ccccc32)cc1 (stereo unspecified) ... > 100 µM
N[C@]1(C(=O)O)C[C@@H]2C(Br)=NO[C@@H]2C1 ... > 100 µM
N#Cc1c(-c2ccccc2)cc(-c2ccccc2)n(CCCC(=O)NO)c1=O ... 5.98 µM
O=C(Nc1nc(-c2ccc(Cl)cc2)cs1)c1cc(-c2ccc(Br)cc2)nc2ccc(Cl)cc12 ... > 100 µM
CCOC(=O)C1C(=O)C=C(c2cc(C)ccc2O)CC1c1cccc(Cl)c1 (stereo unspecified) ... > 100 µM
O=[N+]([O-])c1cc(Cl)c(Cl)cc1[N+](=O)[O-] ... 0.797 µM
Cc1[nH]c(=O)[nH]c(=S)c1C(=O)NC1C2CCCCC2NC2CCCCC21 (stereo unspecified) ... 43.9 µM
Cn1ccc(=O)c2c(O)c3ccccc3c(O)c21 ... > 100 µM
COc1cccc(/C=N/[N-]C(=O)c2ccncc2)c1[O-].[Ni+2].[OH3+] ... > 100 µM
CC1=NC(C)(C)[N+]([O-])=C1 ... > 10 µM
CCOC(=O)C(=O)/C(=C/n1c(=S)[nH]c2ccc([N+](=O)[O-])cc21)C(=O)OCC ... > 100 µM
N#Cc1ccccc1NC(=O)/C(=N\Nc1ccc([N+](=O)[O-])cc1)C1C(=O)NC(=O)NC1=O ... > 100 µM
Cc1cc(=O)oc2cc(OCc3nc4ccccc4c(=O)n3-c3ccccc3)ccc12 ... > 100 µM
C=Cc1nc2nnc(CCCCCCCCc3nnc4nc(C=C)[nH]n34)n2[nH]1 ... > 100 µM
COc1ccc(/C=C/C(=O)c2cc3c(N)c(C(=O)Nc4cccc(Cl)c4C)sc3nc2C)cc1 ... > 50 µM
CCOC(=O)C1=C(Cl)c2cccnc2C1=O ... > 100 µM

###

Property: TGI; scope: individual compounds
system: HCC-2998 colon; test: NCI tumour cell line growth inhibition, 48 h
reported-metric: TGI

CC(C)(Cl)C(Br)CCC(C)(Br)C(Br)CBr (stereo unspecified) ... 25.8 µM
COc1cc(OC)c2c(c1)C(=O)C(CC1(C)OCCCO1)=CC2=O ... 32.2 µM
CNCC(=O)Nc1ccc2c(c1)C(=O)c1ccc(NC(=O)CNC)cc1C2=O ... 14.6 µM
CCOC(=O)C12CCCC1(O)N(NC(N)=O)C(C)=C2C(=O)OC (stereo unspecified) ... > 100 µM
COc1ccc(-c2cc(-c3ccccc3)nc(SCCCC(=O)NO)n2)cc1OC ... 3.59 µM
CC(C)NCCCC(C)Nc1ccnc2ccc3nn(C)nc3c12 (stereo unspecified) ... > 100 µM
CCOC(=O)C1=C(Cl)c2cccnc2C1=O ... > 100 µM
Oc1ccc(O)c(Cc2ccccc2)c1 ... > 100 µM
COc1cc(-c2ccc(-c3ccc(C(=N)N)cc3)s2)cc(OC)c1OC ... 3.24 µM
[N-]=[N+]=Nc1c(Cc2ccccc2)c(=O)oc2ccccc12 ... 62.1 µM
O=C(CCc1n[nH]c(=S)o1)Nc1ccc(Cl)cc1Cl ... > 100 µM
CC1(C)CN(c2cc(C(F)(F)F)cc3cncn23)CCC12NC(=O)NC2=O (stereo unspecified) ... > 100 µM
CC1=C(O)C(=O)C(C2=C(O)C(=O)C(C)=C(O)C2=O)=C(O)C1=O ... > 100 µM
COC1=CC(=Nc2c(Cl)cc(Cl)cc2OC(=O)c2ccc([N+](=O)[O-])cc2)C=C(OC)C1=O ... 32.4 µM
COc1cc([C@@H]2c3cc4c(cc3[C@@H](Nc3ccc(N=Cc5ccc(C(=O)O[C@@H](C(=O)O[C@H]6C[C@@]7(O)[C@@H](OC(=O)c8ccccc8)[C@@H]8[C@]9(OC(C)=O)CO[C@@H]9C[C@H](O)[C@@]8(C)C(=O)[C@H](OC(C)=O)C(=C6C)C7(C)C)[C@@H](NC(=O)c6ccccc6)c6ccccc6)cc5)cc3)[C@H]3COC(=O)[C@H]23)OCO4)cc(OC)c1O ... > 50 µM
CS(=O)(=O)O[C@H]1C(=O)N(c2cc3c4ccccc4ccc3c3ccccc23)[C@@H]1c1ccccc1 ... 5.64 µM
Cc1ccc(C(=O)O)cc1NC(=O)c1cc(/C=C/c2ccccc2)[nH]c(=S)n1 ... > 100 µM
Clc1ccc(OCc2nn3c(CCCCc4nnc5sc(COc6ccc(Cl)cc6Cl)nn45)nnc3s2)c(Cl)c1 ... > 100 µM
CCCCCC(=O)N[C@H]1CCc2cc(O)c(O)c(O)c2-c2ccc(SC)c(=O)cc21 ... > 79 µM
[N-]=[N+]=NCCCn1c2c(c3cc4c(cc3c1=O)OCO4)C(=O)c1ccccc1-2 ... > 100 µM
CNC(=O)NCC1OC(n2cnc3c(NC(=O)Nc4ccccc4)ncnc32)C(O[Si](C)(C)C(C)(C)C)C1CC(=O)N(C)OC (stereo unspecified) ... > 100 µM
O=C(COc1nc2ccccc2nc1-c1ccccc1)Nc1ccc(Cl)cc1 ... > 100 µM
COc1ccc(/C(=N/O)C(c2ccc(OC)cc2)C2C(=O)Oc3ccccc32)cc1 (stereo unspecified) ... > 100 µM
NC(=S)N/N=C1\CCCCc2ccccc21 ... > 10 µM
O=C(CC1(O)C(=O)Nc2c(Cl)ccc(Cl)c21)c1ccco1 (stereo unspecified) ... > 88.5 µM
C[C@@]1(Br)C[C@@](C)(Cl)[C@@H](Br)CC1/C=C/Cl (stereo partly specified) ... > 100 µM
COc1ccc(O)c(/C=N/NC(=S)N2CCCCC2)c1 ... 19.6 µM
O=C(Nc1ccc(OCc2nnc(-c3ccc(Cl)cc3)o2)c(F)c1)c1ccc(Cl)c(C(F)(F)F)c1 ... > 50 µM
Cn1ncc(NC(=O)c2nc(-c3c(F)cccc3F)sc2N)c1N1CC[C@@H](N)[C@H](F)CC1 ... 35.2 µM
O=C(Nc1nc(-c2ccc(Cl)cc2)cs1)c1cc(-c2ccc(Br)cc2)nc2ccc(Cl)cc12 ... > 100 µM
O=CN(CCN1CCCC1)C1CCc2cc(Cl)c(Cl)cc2C1 (stereo unspecified) ... 31.2 µM
CC[C@]12C=CCN3CC[C@@]4(c5cc(N=O)c(OC)cc5N(C)[C@H]4[C@@](O)(C(=O)NC(Cc4c[nH]c5ccccc45)C(=O)OC)[C@@H]1O)[C@@H]32 (stereo partly specified) ... 29 µM
NC1CCCCC1N.Nc1c(N=Nc2ccc(-c3ccc(N=Nc4cc(S(=O)(=O)[O-])c5ccccc5c4N)cc3)cc2)cc(S(=O)(=O)[O-])c2ccccc12.[OH3+].[OH3+].[Pt+4] ... > 100 µM
O=c1c2cc(F)ccc2sc2c(Nc3ccncc3)nc3ccccc3c12 ... 7.97 µM
Cc1ccc(O)c(-c2cc(-c3cccc(Br)c3)on2)c1 ... 53.2 µM
O=C1C(Cl)=C(Cl)C(=O)C2=C1C1c3ccccc3C2c2ccccc21 ... > 100 µM
